Recorded values, source patent US9593107B2.

Target: human CYP11B1 (Homo sapiens)
Sequence (P15538 25-503): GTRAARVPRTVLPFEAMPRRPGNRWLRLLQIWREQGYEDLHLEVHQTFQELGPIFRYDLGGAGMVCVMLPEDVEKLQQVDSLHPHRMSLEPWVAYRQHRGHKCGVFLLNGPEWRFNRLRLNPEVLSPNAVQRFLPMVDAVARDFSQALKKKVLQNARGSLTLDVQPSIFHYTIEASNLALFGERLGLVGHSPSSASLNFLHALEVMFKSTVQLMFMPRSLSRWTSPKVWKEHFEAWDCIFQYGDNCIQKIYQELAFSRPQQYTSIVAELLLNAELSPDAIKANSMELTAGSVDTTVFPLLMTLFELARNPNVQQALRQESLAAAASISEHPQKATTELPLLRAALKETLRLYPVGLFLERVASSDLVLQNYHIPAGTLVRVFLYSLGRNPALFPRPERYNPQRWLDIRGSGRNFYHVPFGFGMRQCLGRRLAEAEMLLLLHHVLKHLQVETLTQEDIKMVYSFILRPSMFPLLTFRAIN
Assay: G-402 cellular enzyme assay, human CYP11B1 (cortisol release, HTRF)
Conditions: G-402 cells expressing human CYP11B1; 1 μM Deoxycortisol
assay-endpoint: EC50 (µM)

A: CN1C(=O)CCc2cc(-c3cncc(Cn4c(Cl)cccc4=O)c3)c(F)cc21 [Example 22]
B: Cc1cccc(=O)n1Cc1cncc(-c2cc3c(cc2F)N(C)C(=O)CC3)c1 [Example 23]
C: CN1C(=O)CCc2cc(-c3cncc(Cn4c(Cl)cccc4=O)c3)ccc21 [Example 17]
D: Cc1c(Cn2c(C)cccc2=O)cncc1-c1cc2c(cc1F)N(C)C(=O)CC2 [Example 24]
// ascending sort on EC50 for the entries above Please respond by ranking the labels in the order requested.
A, C, D, B

---

Target: human CYP11B2 (Homo sapiens)
Sequence (P19099 25-503): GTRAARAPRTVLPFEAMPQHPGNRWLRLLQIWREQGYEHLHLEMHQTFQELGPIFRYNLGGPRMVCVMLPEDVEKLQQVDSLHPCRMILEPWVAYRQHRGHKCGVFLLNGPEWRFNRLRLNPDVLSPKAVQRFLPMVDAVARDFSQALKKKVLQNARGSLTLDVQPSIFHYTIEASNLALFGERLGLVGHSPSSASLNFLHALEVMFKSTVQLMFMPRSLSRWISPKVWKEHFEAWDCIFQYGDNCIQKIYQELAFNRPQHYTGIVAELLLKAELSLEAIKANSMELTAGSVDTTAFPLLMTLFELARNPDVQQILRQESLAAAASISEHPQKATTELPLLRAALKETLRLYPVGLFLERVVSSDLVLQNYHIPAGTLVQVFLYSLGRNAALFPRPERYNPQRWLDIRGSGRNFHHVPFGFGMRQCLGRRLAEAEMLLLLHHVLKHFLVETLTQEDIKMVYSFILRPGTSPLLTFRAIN
Experiment: G-402 cellular enzyme assay, human CYP11B2 (aldosterone release, HTRF)
Settings: G-402 cells expressing human CYP11B2; 1 μM Deoxycorticosterone
Description: Herein we identified the use of the G-402 cell line as a host cell to ectopically express (transiently or stably) enzymes of the CYP11 family. […] Importantly the identified cell line G-402 expresses co-factors (adrenodoxin and adrenodoxin reductase) important for the activity of the CYP11 family and no relevant enzyme activity of the CYP11 family (in comparison to H295R cells) was detected in these cells. […]
assay-endpoint: EC50 (nM)

Consider the worked cases shown below.
compound: CN1C(=O)CCc2cc(-c3cncc(Cn4ccsc4=O)c3)ccc21 [Example 3]
tested-on: human CYP11B2 (Homo sapiens)
result-unit: nM
EC50: 3.6

compound: CN1C(=O)CCc2cc(-c3cncc(Cn4cc(C(F)(F)F)ccc4=O)c3)ccc21 [Example 15]
tested-on: human CYP11B2 (Homo sapiens)
result-unit: nM
EC50: 19.6

compound: CN1C(=O)CCc2cc(-c3cncc(Cn4cc(C#N)ccc4=O)c3)ccc21 [Example 16]
tested-on: human CYP11B2 (Homo sapiens)
result-unit: nM
EC50: 67.3

compound: Cc1cccc(=O)n1Cc1cncc(-c2cc3c(cc2F)N(C)C(=O)CC3)c1 [Example 23]
tested-on: human CYP11B2 (Homo sapiens)
result-unit: nM
EC50: 12.5

compound: CN1C(=O)CCc2cc(-c3cncc(Cn4c(F)cccc4=O)c3)ccc21 [Example 18]
tested-on: human CYP11B2 (Homo sapiens)
result-unit: nM
EC50: 4.1

1: Cc1c(Cn2c(Cl)cccc2=O)cncc1-c1cc2c(cc1F)N(C)C(=O)CC2 [Example 25]
2: CN1C(=O)CCc2cc(-c3cncc(Cn4cccc(C(F)(F)F)c4=O)c3)ccc21 [Example 11]
I'm curious, which of these has a smaller EC50 number: 1 or 2 ? Answer by stating the label of the chosen item.
1

a: Cc1c(Cn2cccc(F)c2=O)cncc1-c1cc2c(cc1F)N(C)C(=O)CC2 [Example 26]
b: Cc1ccn(Cc2cncc(-c3cc4c(cc3F)N(C)C(=O)CC4)c2)c(=O)c1 [Example 20]
I'm curious, which of these has a smaller EC50 number: a or b ? Answer by stating the label of the chosen item.
a
